The entries below are paired with their reported self-splicing fitness (ln).
# run.description: self-splicing fitness, log relative to wild type (ln ratio); higher = more splicing; Tetrahymena group I intron in knt gene, E. coli kanamycin selection, DiMSum; sequences stand for … in CUCUCU…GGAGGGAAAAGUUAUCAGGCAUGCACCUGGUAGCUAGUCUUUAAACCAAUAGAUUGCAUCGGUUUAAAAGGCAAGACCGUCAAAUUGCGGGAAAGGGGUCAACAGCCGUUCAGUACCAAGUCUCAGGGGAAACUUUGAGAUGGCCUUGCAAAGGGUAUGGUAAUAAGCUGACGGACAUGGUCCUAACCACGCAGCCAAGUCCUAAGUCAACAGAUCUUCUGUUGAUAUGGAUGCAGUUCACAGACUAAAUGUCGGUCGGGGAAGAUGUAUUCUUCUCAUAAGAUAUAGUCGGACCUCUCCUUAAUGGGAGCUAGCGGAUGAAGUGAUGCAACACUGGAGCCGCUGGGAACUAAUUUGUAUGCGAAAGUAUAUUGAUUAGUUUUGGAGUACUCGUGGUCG;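 note: selection with 25 µg/mL kanamycin versus none on LB agar overnight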
# experimental.context: 37 °C
Please give only the number in your answer, with no unit.

Recorded results for 10 sequences are shown here.
>  <macromolecule.sequence>
GGCGAGCAAUAUUACGAUCC

>  <recorded.measurement>
-0.128

$$$$
>  <macromolecule.sequence>
GUUUAGCAAUAUUACGACAA

>  <recorded.measurement>
-0.807

$$$$
>  <macromolecule.sequence>
UAUGAGCAAUAUUACGAAUA

>  <recorded.measurement>
-2.22

$$$$
>  <macromolecule.sequence>
GUGUAGCAAUAUUACGCCUG

>  <recorded.measurement>
-0.863

$$$$
>  <macromolecule.sequence>
AGAGAGCAAUAUUACGUGCA

>  <recorded.measurement>
-2.34

$$$$
>  <macromolecule.sequence>
AGGAAGCAAUAUUACGGCCU

>  <recorded.measurement>
-1.5

$$$$
>  <macromolecule.sequence>
UGUCAGCAAUAUUACGAUUA

>  <recorded.measurement>
0.519

$$$$
>  <macromolecule.sequence>
CCUAAGCAAUAUUACGUGCU

>  <recorded.measurement>
-2.55

$$$$
>  <macromolecule.sequence>
UGACAGCAAUAUUACGGAGA

>  <recorded.measurement>
-1.98

$$$$
>  <macromolecule.sequence>
ACCGAGCAAUAUUACGGACA

>  <recorded.measurement>
-0.523

$$$$

What value of self-splicing fitness (ln) has been reported for the following sequence? AAGUAGCAAUAUUACGGCUU
-0.634

====

# run.description: self-splicing fitness, log relative to wild type (ln ratio); higher = more splicing; Tetrahymena group I intron in knt gene, E. coli kanamycin selection, DiMSum; sequences stand for … in CUCUCU…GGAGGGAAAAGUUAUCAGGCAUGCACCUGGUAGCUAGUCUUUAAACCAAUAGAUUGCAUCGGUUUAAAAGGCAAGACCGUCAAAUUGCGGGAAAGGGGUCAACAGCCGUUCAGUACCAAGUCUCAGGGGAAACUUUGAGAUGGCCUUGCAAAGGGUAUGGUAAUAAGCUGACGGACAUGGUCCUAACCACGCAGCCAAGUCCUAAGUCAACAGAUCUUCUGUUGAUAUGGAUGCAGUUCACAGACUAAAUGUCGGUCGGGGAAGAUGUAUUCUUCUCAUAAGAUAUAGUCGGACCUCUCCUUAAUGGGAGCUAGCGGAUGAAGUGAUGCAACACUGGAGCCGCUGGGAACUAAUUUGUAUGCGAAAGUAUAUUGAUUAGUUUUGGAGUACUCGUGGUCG
# experimental.context: 37 °C
Please enter Criterion met where self-splicing fitness (ln) is greater than or equal to -1, and Criterion not met where it is lower.

Please review the entries below; each comes with its answer.
>  <macromolecule.sequence>
UGUAAGCAAUAUUACGCUUG

>  <class.assignment>
Criterion not met

$$$$
>  <macromolecule.sequence>
GUGGAGCAAUAUUACGUCAC

>  <class.assignment>
Criterion not met

$$$$
>  <macromolecule.sequence>
ACAAAGCAAUAUUACGCAGC

>  <class.assignment>
Criterion met

$$$$
>  <macromolecule.sequence>
GCUUAGCAAUAUUACGUAUG

>  <class.assignment>
Criterion not met

$$$$
>  <macromolecule.sequence>
UUCAAGCAAUAUUACGACUC

>  <class.assignment>
Criterion met

$$$$
>  <macromolecule.sequence>
UGUUAGCAAUAUUACGAAGA

>  <class.assignment>
Criterion not met

$$$$
>  <macromolecule.sequence>
AGCAAGCAAUAUUACGCGGC

>  <class.assignment>
Criterion not met

$$$$
>  <macromolecule.sequence>
CGAUAGCAAUAUUACGAGCU

>  <class.assignment>
Criterion not met

$$$$
>  <macromolecule.sequence>
CCCGAGCAAUAUUACGCUCA

>  <class.assignment>
Criterion not met

$$$$
>  <macromolecule.sequence>
AAAAAGCAAUAUUACGCCGC

>  <class.assignment>
Criterion not met

$$$$

Determine whether this sequence has self-splicing fitness (ln) no lower than -1: ACACAGCAAUAUUACGGCCU
Criterion met

Is self-splicing fitness (ln) at least -1? Consider GCACAGCAAUAUUACGGGAC
Criterion not met

Given AAUAAGCAAUAUUACGCCGG , state whether its self-splicing fitness (ln) is at least -1.
Criterion not met

Has CAGCAGCAAUAUUACGGUUC a recorded self-splicing fitness (ln) greater than or equal to -1?
Criterion not met

hey, is self-splicing fitness (ln) for this one >= -1? AUUAAGCAAUAUUACGUGGU
Criterion not met

Does the reported self-splicing fitness (ln) for ACGUAGCAAUAUUACGUAGU fall at or above the -1 mark?
Criterion not met
